Below, each of the molecules is paired with its reported growth value.
- System: PC-3 prostate
- protocol details: NCI-60 one-dose screen, 48 h (100 = growth as untreated, 0 = no growth, -100 = all killed)
- measurement parameters: 10 µM
About 83,000 compounds went through this panel and 20% of them were active in at least one assay; those are over-represented in the sample as a whole. Activity calls are given as the source filed them. The calls were made as follows: active = growth percent below 10; inactive = the rest.

molecule | growth
Cc1noc(C)c1CSc1ccccc1C(=O)N1CCN(c2cccc(C(F)(F)F)c2)CC1 | 55.3% (inactive)
O=C(O)Cc1ccc(O)c(O)c1 | 106% (inactive)
CC[C@H]1OC(=O)[C@H](C)[C@@H](O[C@H]2C[C@@](C)(OC)[C@@H](O)[C@H](C)O2)[C@H](C)[C@@H](O[C@@H]2O[C@H](C)C[C@H](N(C)C)[C@H]2O)[C@](C)(OC)C/C(C)=C2/O[C@@]1(C)C=C2C | 53.3% (inactive)
COc1ccc(-c2nn(-c3cccc(Cl)c3)cc2-c2c(C#N)c(=O)n3[nH]c(-c4ccccc4)nc3c2C#N)cc1 | 101% (inactive)
CS(=O)(=O)c1nccc(-c2c(-c3cccc(OCCc4ccccc4)c3)nc3sccn23)n1 | 86.9% (inactive)
Cc1cc(CCNC=O)c(C)c2c1sc1ccccc12 | 84.7% (inactive)
N=C1S/C(=C/c2ccc(-c3ccc4c(c3)C(=O)NC4=O)o2)C(=O)N1c1ccc(Br)cc1 | -2.15% (active)
COc1ccccc1-n1c(-c2sc(NC(C)=O)nc2C)n[nH]c1=S | 95.9% (inactive)
Clc1nc2ccc(Br)cc2cc1-c1nc2ccccc2[nH]1 | 39.6% (inactive)
Oc1ccc(/C=N/N=C2c3ccccc3-c3ccccc32)c(O)c1 | 72.9% (inactive)
COc1ccc(C2CC(c3cccs3)=NN2c2ccc(S(N)(=O)=O)cc2)cc1 (stereo not given) | 49.9% (inactive)
O=c1oc2c(cc1-c1ccc(F)cc1)C(O)Oc1ccccc1-2 (stereo not given) | 92.9% (inactive)
CC(C)CCN(CCC(C)C)CC(=O)Nc1ccc(S(=O)(=O)c2ccc(NC(=O)CN(CCC(C)C)CCC(C)C)cc2)cc1 | 39.7% (inactive)
COC1=CC(=O)OC(c2ccc(OC)cc2)C1 (stereo not given) | 105% (inactive)
O=C(CN1CCN(C(=O)c2ccccc2)CC1)Nc1ccccc1SCc1ccccc1 | 57.9% (inactive)
Cc1cc(O)ccc1C1=NN(c2ccc(S(C)(=O)=O)cc2)C(=O)CC1 | 77.9% (inactive)
NS(=O)(=O)Oc1ccc(-c2ccc3sccc3c2)cc1 | 96.5% (inactive)
O=S(=O)(O)c1ccc(Cl)cc1 | 96.5% (inactive)
C[n+]1c2ccccc2nc2ccccc21 | 7.71% (active)
O=C(N/N=C/c1c(Cl)cccc1Cl)c1ccccc1Nc1cccc(C(F)(F)F)c1 | 89.9% (inactive)

----------
- Test system: RXF 393 renal
- protocol details: NCI-60 one-dose screen, 48 h
- measurement parameters: 10 µM
About 83,000 compounds went through this panel and 20% of them were active in at least one assay; those are over-represented in the sample as a whole. Active and inactive are the calls of the source. How the source made its calls: active means growth percent below 10; inactive means the rest.
Classes used: class 1 for active, class 0 for inactive

molecule | system | group label
O=S(=O)(O)c1cccc(Nc2ccc3ccccc3c2)c1 | RXF 393 renal | class 0
CCCN(CCC)C(=O)[C@H](CC)[C@@H]1CC[C@@H](C)[C@@H]([C@H](C)[C@@H](O)[C@@H](C)C(=O)[C@H](CC)C2O[C@]3(C=C[C@@H](O)[C@]4(CC[C@@](C)([C@H]5CC[C@](O)(CC)[C@H](C)O5)O4)O3)[C@H](C)C[C@@H]2C)O1 (stereo partly specified) | RXF 393 renal | class 1
O=C1c2ccccc2C(=O)c2c1ccc(C(Br)Br)c2Cl | RXF 393 renal | class 0
O=C1CC(SC(=S)C2CCCC2=O)C(=O)N1 (stereo unspecified) | RXF 393 renal | class 0
CCn1cc(CNc2ccc(C(=O)Nc3ccc4ccccc4c3)cc2)c(C)n1 | RXF 393 renal | class 0
CC(C1=C(CN(C(=O)Cc2cn(-c3ccccc3)nc2-c2ccc(Cl)cc2)C(C)C)Cc2ccccc21)c1ccccn1 (stereo unspecified) | RXF 393 renal | class 0
Cc1cc(=O)n2nnc3cc(Cl)c(Cl)cc3n12 | RXF 393 renal | class 0
COc1cccc(-c2nc3sccn3c2-c2cccc(S(C)(=O)=O)c2)c1 | RXF 393 renal | class 0
CN(C)CCCN1c2ccccc2CCc2ccc(Cl)cc21 | RXF 393 renal | class 0
O=C(CI)OCC(COC(=O)CI)OC(=O)CI | RXF 393 renal | class 0
CCN(CC)CCOc1cccc2c1C(=O)c1cccc(OCCN(CC)CC)c1C2=O | RXF 393 renal | class 0
COc1cccc(N=Nc2cccc(OC)c2)c1 | RXF 393 renal | class 0
CCNCC(=O)Nc1ccc(C(=O)OCC)cc1 | RXF 393 renal | class 0
CC(C)(C)c1ccc(S(=O)(=O)Oc2ccc(NC(=O)C3CCCCC3)cc2)cc1 | RXF 393 renal | class 0
O=C1c2ccccc2C(=O)N1CCCCNc1ccccc1 | RXF 393 renal | class 0
c1cncc(-c2csc(-c3c[nH]c4ccccc34)n2)c1 | RXF 393 renal | class 0
Cc1ccc(C)c(COc2cc(NC(=O)c3ccc4c(c3)OCO4)ccc2N(C)S(C)(=O)=O)c1 | RXF 393 renal | class 1
CC(=O)C1N=NCC1c1ccccc1 (stereo unspecified) | RXF 393 renal | class 0
NC1=NC(c2ccccc2)C2=C(N1)/C(=C/c1ccccc1)CCC2 (stereo unspecified) | RXF 393 renal | class 0
COc1ccc(-c2n[nH]nc2-c2cc(OC)c3c(c2OC)OCO3)cc1 | RXF 393 renal | class 1
CC1=CC2C(C(O)CC3(C)C2CC(C)C32OCOC23COCO3)C2(C)C/C(=C/O)C(=O)C=C12 (stereo unspecified) | RXF 393 renal | class 0

----------
Below, each of the molecules is paired with its reported growth value.
- System: BT-549 breast
- protocol details: NCI-60 one-dose screen, 48 h (100 = growth as untreated, 0 = no growth, -100 = all killed)
- measurement parameters: 10 µM
The panel holds about 83,000 compounds, 20% with a hit somewhere; the sample as a whole holds those more often.
measured endpoint: growth (%)

molecule | readout units | value measured
N=C1S/C(=C/c2ccc(-c3ccc4c(c3)C(=O)NC4=O)o2)C(=O)N1c1ccc(Br)cc1 | % | 60.3
O=C1CCn2c1c(O)c1ccccc1c2=O | % | 113
COc1ccc2c(c1)C(=O)/C(=C/c1ccc([N+](=O)[O-])o1)O2 | % | -49.9
c1ccc(CSc2ncccc2-c2nnc(SCCN3CCOCC3)o2)cc1 | % | 112
C=CCn1c(SCC(=O)Nc2ccc(C(=O)/C=C/c3cc(OC)c(OC)c(OC)c3)cc2)nnc1-c1cc(-c2ccc(Cl)cc2)nc2ccccc12 | % | 75
CCN1CC(CCN2CCOCC2)C(C(c2ccccc2)c2ccccc2)C1=O (centres undefined) | % | 109
COc1cc(-c2nn(-c3cccc(NC(=O)CCN4CCN(c5ccccc5)CC4)c3)cc2-c2ccncc2)ccc1Cl | % | 12.6
CCc1ccc(-c2ccc(-n3nc(C)c4c(N)nc(Cc5ccccc5)nc43)cc2)cc1 | % | 72
CNC(=O)c1cn2c3c(c(N4CCN(C)CC4)c(F)cc3c1=O)OC[C@@H]2C | % | 104

----------
- Test system: MDA-MB-231 breast
- protocol details: NCI-60 one-dose screen, 48 h (100 = growth as untreated, 0 = no growth, -100 = all killed)
- measurement parameters: 10 µM
About 83,000 compounds went through this panel and 20% of them were active in at least one assay; those are over-represented in the sample as a whole.

molecule | readout units | growth
Cc1ccc(-c2c3c(N)nc(-c4cccnc4)nc3nc3c2c(C)nn3-c2ccccc2)cc1 | % | 75.9
Nc1ccccc1NC(=O)c1ccc(CCCC(=O)Nc2ccc(C3CC3N)cc2)cc1 (stereo not given) | % | 47.5
CNC(=O)c1cc(Oc2ccc3c(c2)sc2nc(-c4ccc(N)cc4)cn23)ccn1 | % | 22.2
O=C1c2c(c3c4ccccc4n(CCCCCCN4CCOCC4)c3c3[nH]c4ccccc4c23)C(=O)N1O | % | 48.5
COc1cc(/C=C2\CCCC3C2=Nc2ccccc2NC3c2cc(OC)c(OC)c(OC)c2)cc(OC)c1OC (stereo not given) | % | 24.1
CCOC(=O)C(C)(c1ccccc1)c1ccccc1 | % | 111
Cc1ccc(C)c(COc2cc(NC(=O)c3ccc4c(c3)OCO4)ccc2N(C)S(C)(=O)=O)c1 | % | -10.8
COc1ccc(/C=C2\CCCC3=C2N=C2SC(C)=CN2C3c2ccc(OC)cc2)cc1 (stereo not given) | % | 101
C#CCOc1c(OC)cc(C(=O)/C(C)=C/c2cccc(N=[N+]=[N-])c2)cc1OC | % | 30.5
N#Cc1cnn(C(=O)c2nn(-c3ccc(Cl)cc3)cc2O)c1N | % | 38.5
CCN(CC)c1ccc(/C=C2\SC(=O)C(Nc3nnc(-c4cccnc4SCc4ccccc4)o3)C2=O)cc1 (stereo not given) | % | 39.4
CC(C1=C(CN(C(=O)Cc2cn(-c3ccccc3)nc2-c2ccc(Cl)cc2)C(C)C)Cc2ccccc21)c1ccccn1 (stereo not given) | % | 60.2
CCn1cc(CNc2ccc(C(=O)Nc3ccc4ccccc4c3)cc2)c(C)n1 | % | 83.8
O=C(CN1CCN(C(=O)c2ccccc2)CC1)Nc1ccccc1SCc1ccccc1 | % | 68.7
c1cncc(-c2csc(-c3c[nH]c4ccccc34)n2)c1 | % | 73.5
COc1ccc(-c2nn(-c3cccc(Cl)c3)cc2-c2nc(N)[nH]c(=O)c2C#N)cc1 | % | 62.9
CCOC(=O)c1cc(C(=O)c2ccc(OC)c(OC)c2)n2c1ccc1ccc3cccnc3c12 | % | 45.2
COc1ccc(N(C)c2ncnc3occ(C)c23)cc1 | % | -3.09
COc1ccc(-c2cc(-c3ccccc3)nc(SCCCC(=O)NO)n2)cc1 | % | -0.784
O=C(Nc1ccc(F)cc1)c1cc2ccccc2cc1O | % | 66.7
